Reference source: patent US20250090699A1

I'd appreciate it if you could supply pKd values for the items below.
Molecular target: mouse FAP (Mus musculus)
Construct: biotinylated His, Avi tag, mouse FAP (26-761, FAP-M82Q5); His; Avi tag (biotinylated); purchased AcroBiosystems FAP-M82Q5
Sequence (P97321 26-761): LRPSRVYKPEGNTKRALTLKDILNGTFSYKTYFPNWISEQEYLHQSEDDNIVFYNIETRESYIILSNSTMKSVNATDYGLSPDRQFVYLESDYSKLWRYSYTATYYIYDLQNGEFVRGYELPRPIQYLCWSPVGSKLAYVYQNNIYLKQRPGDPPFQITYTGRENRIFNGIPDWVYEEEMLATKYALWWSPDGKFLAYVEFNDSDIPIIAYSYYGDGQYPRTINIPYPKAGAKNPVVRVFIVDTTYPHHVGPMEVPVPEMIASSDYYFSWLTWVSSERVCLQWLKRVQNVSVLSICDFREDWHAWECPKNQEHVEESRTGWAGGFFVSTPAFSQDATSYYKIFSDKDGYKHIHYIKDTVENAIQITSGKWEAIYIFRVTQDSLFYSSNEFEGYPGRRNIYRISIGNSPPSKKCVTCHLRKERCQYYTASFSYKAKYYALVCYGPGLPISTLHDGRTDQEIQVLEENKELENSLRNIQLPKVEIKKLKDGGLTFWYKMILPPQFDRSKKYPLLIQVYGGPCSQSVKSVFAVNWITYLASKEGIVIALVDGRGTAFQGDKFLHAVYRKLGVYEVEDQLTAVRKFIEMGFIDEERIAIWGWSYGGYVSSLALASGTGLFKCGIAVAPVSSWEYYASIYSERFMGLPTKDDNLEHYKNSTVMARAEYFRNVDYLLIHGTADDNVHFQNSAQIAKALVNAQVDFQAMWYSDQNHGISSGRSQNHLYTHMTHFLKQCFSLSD
Experiment: Surface plasmon resonance (SPR) for peptide affinity, mouse FAP
Format: binding
Structures can show the parent of a compound that is named as a salt. Non-standard residues stand in square brackets, D forms with d. Residues, ends and D or L forms follow the SMILES beside them. *: point of attachment. X9 = O=C(O)CN1CCN(CC(=O)O)CCN([C@H](CCC(=O)*)C(=O)O)CCN(CC(=O)O)CC1; AEF = NCCOc1ccc(C[C@H](N)C(=O)O)cc1; NMeY = CN[C@@H](Cc1ccc(O)cc1)C(=O)O; NMeF = CN[C@@H](Cc1ccccc1)C(=O)O; Ahp(2) = CCCCC[C@H](N)C(=O)O
Interpret pKd as the negative base-10 log of the concentration measured in mol/L.

Q: Please report the recorded pKd for CCCCC[C@@H]1NC(=O)[C@H](Cc2ccc(O)cc2)NC(=O)[C@H](Cc2ccccc2)N(C)C(=O)[C@H](CCC(=O)O)NC(=O)[C@H](CCCCN)NC(=O)[C@H]2CCCN2C(=O)[C@H](CC(=O)O)NC(=O)[C@H](Cc2ccc(O)cc2)NC(=O)CNC(=O)[C@H](Cc2c[nH]c3ccccc23)NC1=O [Example A21, TFA salt] (cyclo([Ahp(2)]WGYD[dP]KE[NMeF]Y)) .
Ans: 7.82

Q: Look up pKd: CCCCC[C@@H]1NC(=O)[C@H](Cc2ccc(OCCNC(=O)CC[C@H](C(=O)O)N3CCN(CC(=O)O)CCN(CC(=O)O)CCN(CC(=O)O)CC3)cc2)NC(=O)[C@H](Cc2ccccc2)N(C)C(=O)CNC(=O)CNC(=O)[C@H]2CCCN2C(=O)[C@H](CC(=O)O)NC(=O)[C@H](Cc2ccc(O)cc2)NC(=O)CNC(=O)[C@H](Cc2c[nH]c3ccccc23)NC1=O [Example B30] (cyclo([AEF](X9)[Ahp(2)]WGYD[dP]GG[NMeF]))
Ans: 9.92

Q: Can you share its pKd? I mean this compound: CCCCC[C@@H]1NC(=O)[C@H](Cc2ccc(O)cc2)NC(=O)[C@H](Cc2ccccc2)N(C)C(=O)CNC(=O)CNC(=O)[C@H]2CCCN2C(=O)[C@H](CC(=O)O)NC(=O)[C@H](Cc2ccc(O)cc2)N(C)C(=O)CNC(=O)[C@H](Cc2c[nH]c3ccccc23)NC1=O [Example A50] (cyclo([Ahp(2)]WG[NMeY]D[dP]GG[NMeF]Y))
Ans: 8.55
